Assay: Measurement of solubility
Type: physicochemical
Conditions: water, thermodynamic from solid

[
  {
    "Compound": "CCCCCN(C)Cc1cc(-c2[nH]c3cccc(F)c3c(=O)c2C)ccc1Cc1ccc(OC(F)(F)F)cc1",
    "Units text": "µM",
    "solubility at 24 h": 6.4
  },
  {
    "Compound": "CCCN(C)Cc1cc(-c2[nH]c3cccc(F)c3c(=O)c2C)ccc1Cc1ccc(OC(F)(F)F)cc1",
    "Units text": "µM",
    "solubility at 24 h": 13.6
  },
  {
    "Compound": "Cc1c(-c2ccc(Cc3ccc(OC(F)(F)F)cc3)c(CN(C)C)c2)[nH]c2cccc(F)c2c1=O",
    "Units text": "µM",
    "solubility at 24 h": 40
  },
  {
    "Compound": "CCCCCCCN(C)Cc1cc(-c2[nH]c3cccc(F)c3c(=O)c2C)ccc1Cc1ccc(OC(F)(F)F)cc1",
    "Units text": "µM",
    "solubility at 24 h": 2
  },
  {
    "Compound": "Cc1c(-c2ccc(Cc3ccc(OC(F)(F)F)cc3)c(CN3CCCC3)c2)[nH]c2cccc(F)c2c1=O",
    "Units text": "µM",
    "solubility at 24 h": 16.3
  },
  {
    "Compound": "O=C1C(O)=C([C@H]2CC[C@H](c3ccc(Cl)cc3)CC2)C(=O)c2ccccc21 [Atovaquone, atovaquone, reference compound]",
    "Units text": "µM",
    "solubility at 24 h": 0.7
  }
]

* * *

Test: Measurement of solubility
Type: physicochemical
Settings: methanol, organic solvent or mixture, thermodynamic from solid
So basically: solubility at 24 h at 40 mM or higher? That is Met. Lower than 40 mM? That is Not met.

[
  {
    "Compound": "CCCCCN(C)Cc1cc(-c2[nH]c3cccc(F)c3c(=O)c2C)ccc1Cc1ccc(OC(F)(F)F)cc1",
    "Classification": "Not met"
  },
  {
    "Compound": "CCCN(C)Cc1cc(-c2[nH]c3cccc(F)c3c(=O)c2C)ccc1Cc1ccc(OC(F)(F)F)cc1",
    "Classification": "Not met"
  },
  {
    "Compound": "Cc1c(-c2ccc(Cc3ccc(OC(F)(F)F)cc3)c(CN(C)C)c2)[nH]c2cccc(F)c2c1=O",
    "Classification": "Met"
  },
  {
    "Compound": "CCCCCCCN(C)Cc1cc(-c2[nH]c3cccc(F)c3c(=O)c2C)ccc1Cc1ccc(OC(F)(F)F)cc1",
    "Classification": "Not met"
  },
  {
    "Compound": "O=C1C(O)=C([C@H]2CC[C@H](c3ccc(Cl)cc3)CC2)C(=O)c2ccccc21 [Atovaquone, atovaquone, reference compound]",
    "Classification": "Not met"
  },
  {
    "Compound": "Cc1c(-c2ccc(Cc3ccc(OC(F)(F)F)cc3)c(CN3CCCC3)c2)[nH]c2cccc(F)c2c1=O",
    "Classification": "Not met"
  }
]

* * *

Molecular target: Pfbc1 (Plasmodium falciparum, UniProt Q02768)
Sequence (Q02768 1-376): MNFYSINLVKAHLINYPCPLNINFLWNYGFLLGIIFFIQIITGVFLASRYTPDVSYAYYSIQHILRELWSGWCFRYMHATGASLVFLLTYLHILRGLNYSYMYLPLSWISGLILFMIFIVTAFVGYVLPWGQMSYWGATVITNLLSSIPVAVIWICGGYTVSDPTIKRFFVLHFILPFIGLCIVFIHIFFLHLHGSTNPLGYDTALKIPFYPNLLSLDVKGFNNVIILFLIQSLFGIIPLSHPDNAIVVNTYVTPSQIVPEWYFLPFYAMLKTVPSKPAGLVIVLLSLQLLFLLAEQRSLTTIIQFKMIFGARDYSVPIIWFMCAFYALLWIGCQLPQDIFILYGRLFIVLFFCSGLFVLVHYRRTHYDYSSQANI

[
  {
    "Smiles str": "CCCN(C)Cc1cc(-c2[nH]c3cccc(F)c3c(=O)c2C)ccc1Cc1ccc(OC(F)(F)F)cc1",
    "IC50 [pM]": 510
  }
]
